Biological target: caspase 3 (Homo sapiens, UniProt P42574)
Sequence (P42574 29-175 limits assumed): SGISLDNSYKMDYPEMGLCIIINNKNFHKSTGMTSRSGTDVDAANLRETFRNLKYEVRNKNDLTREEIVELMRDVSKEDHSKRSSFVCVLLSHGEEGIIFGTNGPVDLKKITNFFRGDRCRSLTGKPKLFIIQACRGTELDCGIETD
Sequence (P42574 176-277 limits assumed): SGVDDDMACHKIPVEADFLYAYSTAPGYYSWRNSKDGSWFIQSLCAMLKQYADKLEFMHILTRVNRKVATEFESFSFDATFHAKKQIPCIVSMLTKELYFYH
Assay: Fluorimetric in vitro caspase inhibition assay (7-AMC), caspase 3
Format: biochemical
Design: purchased Biomol International, UK
Conditions: recombinant human caspase 3, 10 μM Ac-DEVD-AMC
readout_kind: EC50 (nM)

| compound | unit | EC50 |
| --- | --- | --- |
| O=C1C(=O)N(Cc2ccc(F)cc2)c2ccc(S(=O)(=O)N3CCC[C@H]3COc3ccc(F)cc3)cc21 [Compound 22] | nM | 26.1 |
| O=C1C(=O)N(Cc2ccc(F)cc2)c2ccc(S(=O)(=O)N3CCCC3)cc21 [Compound 16, reference compound] | nM | 200 |

[a] O=C1C(=O)N(Cc2ccc(F)cc2)c2ccc(S(=O)(=O)N3CCC[C@H]3COc3ccncn3)cc21 [Compound 5]
[b] O=C1C(=O)N(Cc2ccc(F)cc2)c2ccc(S(=O)(=O)N3CCC[C@H]3COc3ccc(F)cc3F)cc21 [Compound 2]
Query :: Dear colleague, could you let me know whether a or b has the lower recorded EC50? Thanks. Mark your selection by writing its label.
Result :: a
(a: 5.5 nM, b: 12.4 nM)

====

Experiment: Log P determination, octanol-water partition coefficient
Format: physicochemical
Conditions: read-out: Measured Log P
readout_kind: logP at 10 min
The answer should be a number; do not append a unit.

Query :: Form field: reported logP at 10 min of O=C1C(=O)N(Cc2cn(CC[18F])nn2)c2ccc(S(=O)(=O)N3CCC[C@H]3COc3ccc(F)cc3F)cc21 [[^18F]11]
Result :: 1.61

====

Target: caspase 7 (Homo sapiens)
Construct: purchased Biomol International, UK
Sequence (P55210 24-198 limits assumed): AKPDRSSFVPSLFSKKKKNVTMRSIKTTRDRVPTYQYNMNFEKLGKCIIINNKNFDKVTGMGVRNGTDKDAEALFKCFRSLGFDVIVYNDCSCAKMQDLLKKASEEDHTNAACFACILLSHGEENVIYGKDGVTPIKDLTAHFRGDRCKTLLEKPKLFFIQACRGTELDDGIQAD
Sequence (P55210 207-303 limits assumed): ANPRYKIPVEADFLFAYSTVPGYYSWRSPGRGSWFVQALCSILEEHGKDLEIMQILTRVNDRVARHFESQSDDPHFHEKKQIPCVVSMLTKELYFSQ
Experiment: Fluorimetric in vitro caspase inhibition assay (7-AMC), caspase 7
Format: biochemical
Conditions: recombinant human caspase 7, 10 μM Ac-DEVD-AMC
readout_kind: EC50 (nM)

| compound | unit | EC50 |
| --- | --- | --- |
| O=C1C(=O)N(Cc2ccc(F)cc2)c2ccc(S(=O)(=O)N3CCC[C@H]3COc3ccc(F)cc3F)cc21 [Compound 2] | nM | 13 |
| O=C1C(=O)N(Cc2ccc(F)cc2)c2ccc(S(=O)(=O)N3CCC[C@H]3COC3CCOCC3)cc21 [Compound 4] | nM | 14.4 |
| C#CCN1C(=O)C(=O)c2cc(S(=O)(=O)N3CCC[C@H]3COc3ccc(F)cc3F)ccc21 [Compound 25] | nM | 60.4 |
| O=C1C(=O)N(Cc2ccc(F)cc2)c2ccc(S(=O)(=O)N3CCCC3)cc21 [Compound 16, reference compound] | nM | 78.6 |
| O=C1C(=O)N(Cc2ccc(F)cc2)c2ccc(S(=O)(=O)N3CCC[C@H]3COc3cc(F)cc(F)c3)cc21 [Compound 3] | nM | 16.8 |
| O=C1C(=O)N(Cc2ccccc2)c2ccc(S(=O)(=O)N3CCC[C@H]3COc3ccccc3)cc21 [Compound 13, reference compound] | nM | 29.4 |
| O=C1C(=O)N(Cc2cn(CCF)nn2)c2ccc(S(=O)(=O)N3CCC[C@H]3COc3ccc(F)cc3F)cc21 [Compound 11] | nM | 2.2 |
| O=C1C(=O)N(Cc2ccc(F)cc2)c2ccc(S(=O)(=O)N3CCC[C@H]3COc3cccc(F)c3)cc21 [Compound 1] | nM | 13.5 |
| O=C1C(=O)N(Cc2cn(CCF)nn2)c2ccc(S(=O)(=O)N3CCC[C@H]3COc3ccccc3)cc21 [Compound 10] | nM | 28.2 |
| O=C1C(=O)N(Cc2ccc(F)cc2)c2ccc(S(=O)(=O)N3CCC[C@H]3COc3ccncn3)cc21 [Compound 5] | nM | 2.3 |

[1] O=C1C(=O)N(Cc2ccc(F)cc2)c2ccc(S(=O)(=O)N3CCC[C@H]3COc3ccccc3)cc21 [Compound 15, reference compound]
[2] O=C1C(=O)N(Cc2ccc(F)cc2)c2ccc(S(=O)(=O)N3CCC[C@H]3COc3ccc(F)cc3)cc21 [Compound 22]
Query :: // pick larger EC50 from pair: 1 vs 2 Mark your selection by writing its label.
Result :: 1
(1: 19.8 nM, 2: 8 nM)

These data points were gathered from patent US8961930B2.
